Test system: HL60 cells
Test: AsedaSciences SYSTEMETRIC Cell Health Screen (flow cytometry toxicity profiling)
Settings: HL60, 4 h, 5 nM–100 µM, probability 0–1, n = 2
Cut-off 0.4 on NMI1: Nuclear membrane integrity 1 score: below means label 1, at or above means label 0.

compound | target_under_test | class_label
Cc1ccc(=O)n(-c2ccccc2)c1 [Pirfenidone, reference compound] | HL60 cells | label 1
Cc1ccc(-c2cc(C(F)(F)F)nn2-c2ccc(S(N)(=O)=O)cc2)cc1 [Celecoxib, reference compound] | HL60 cells | label 0
C#Cc1cccc(Nc2ncnc3cc(Br)ccc23)c1 [Compound 14] | HL60 cells | label 1
C#Cc1cccc(Nc2ncnc3cc(I)ccc23)c1 [Compound 15] | HL60 cells | label 1
CCc1nn(CCCN2CCN(c3cccc(Cl)c3)CC2)c(=O)n1CCOc1ccccc1 [Nefazodone, reference compound] | HL60 cells | label 0
C#Cc1cc(Nc2ncnc3cc(OC)c(OC)cc23)ccc1F [Compound 44] | HL60 cells | label 0
C#Cc1ccc(F)c(Nc2ncnc3cc(OC)c(OC)cc23)c1 [Compound 42] | HL60 cells | label 1
[H]/N=C(/N)N/C(=N/[H])NCCc1ccccc1 [Phenformin, reference compound] | HL60 cells | label 0
C#Cc1cc(Nc2ncnc3cc(I)ccc23)ccc1Cl [Compound 41] | HL60 cells | label 0
C=C(C)[C@H]1Cc2c(ccc3c2O[C@@H]2COc4cc(OC)c(OC)cc4[C@@H]2C3=O)O1 [Rotenone, reference compound] | HL60 cells | label 0
NC(=O)c1ncn([C@@H]2O[C@H](CO)[C@@H](O)[C@H]2O)n1 [Ribavirin, reference compound] | HL60 cells | label 1
CC(c1cc2ccccc2s1)N(O)C(N)=O (stereo not drawn) [Zileuton, reference compound] | HL60 cells | label 1
CN(CCOc1ccc(CC2SC(=O)NC2=O)cc1)c1ccccn1 (stereo not drawn) [Rosiglitazone, reference compound] | HL60 cells | label 1
C#Cc1cccc(Nc2ncnc3cc(C(F)(F)F)ccc23)c1 [Compound 16] | HL60 cells | label 0
C#Cc1cccc(Nc2ncnc3ccc(Br)cc23)c1 [Compound 8] | HL60 cells | label 1
C#Cc1cc(Nc2ncnc3ccc(I)cc23)ccc1F [Compound 36] | HL60 cells | label 1
C#Cc1cccc(Nc2ccnc3ccc(I)cc23)c1F [Compound 35] | HL60 cells | label 0

The reported numbers originate from paper PMC9329436.
